System: SF-268
protocol: NCI tumour cell line growth inhibition, 48 h
Activity calls are given as the source filed them. Cut-off read from the data, not from the text of the source: active = GI50 up to about 1.1 µM and inactive = higher.
Pick one: True for active, False for inactive

A selection of reference data follows.
{"columns": ["compound", "assignedCategory"],
 "data": [
  ["Brc1ccc2[nH]cc([C@@H]3CN[C@@H](c4c[nH]c5ccc(Br)cc45)CN3)c2c1", "False"],
  ["CC(C)(C)c1cc(C(=O)/C=C/c2ccc3c(c2)OCO3)cc(C(C)(C)C)c1O", "False"],
  ["CO[C@@H]1C=C[C@@]23c4cc5c(cc4C(O)N(CC2O)C3C1)OCO5 (stereo partly drawn)", "False"],
  ["CCOc1ccc(/C=N\\N2C(=O)c3ccccc3C2=O)cc1", "False"],
  ["O=C1[C@H]2ON(c3ccccc3)C(c3ccco3)[C@H]2C(=O)N1c1ccc(Cc2ccc(N3C(=O)[C@@H]4ON(c5ccccc5)C(c5ccco5)[C@@H]4C3=O)cc2)cc1 (stereo partly drawn)", "False"],
  ["CCCCCCCCCC1CC(=O)OC2=C1C(=O)CCC2 (stereo not drawn)", "False"],
  ["COC(=O)CCC(=O)C(C#N)c1ccc(Cl)cc1Cl (stereo not drawn)", "False"],
  ["CCCCC(CC)C(=O)Oc1ccc(C(=O)c2ccccc2)c(O)c1 (stereo not drawn)", "False"]
]}

Entry O=C(c1ccccc1)c1ccc2[nH]c(-c3c(Cl)c(Cl)c(Cl)c(Cl)c3C(=O)Nc3ccco3)nc2c1 : call = ? False

Entry Nc1nc(SCc2ccccn2)c2ncn(C3CCCC3)c2n1 : call = ? False

Entry CCCCN/C(=N/C#N)NCc1ccccc1 : call = ? False

Entry c1cc2c3ccsc3c3sccc3c2s1 : call = ? False

Entry O=C(CN1CCN(C(=O)OCc2ccccc2)CCN(CC(=O)N2CCCCC2)CCN(C(=O)OCc2ccccc2)CC1)N1CCCCC1 : call = ? False

Entry Nc1n[nH]c2c1Cc1c(n(Cc3ccc(Cl)cc3)c3ccccc13)C(=O)N2 : call = ? False

----------
Test system: RPMI-8226
protocol: NCI tumour cell line growth inhibition, 48 h
Active and inactive are the calls of the source. Rule as the data show it: active = GI50 up to about 1.1 µM and inactive = higher.
Pick one: active, inactive

A selection of reference data follows.
{"columns": ["compound", "assignedCategory"],
 "data": [
  ["c1cnc2c3[nH]cc4[nH]c5ccccc5c4c-3nc2c1", "inactive"],
  ["Nc1c(S(=O)(=O)O)cc(S(=O)(=O)O)c2ccc(/N=N/c3ccc(/C=C/c4ccc(/N=N/c5ccc6c(S(=O)(=O)O)cc(S(=O)(=O)O)c(N)c6c5O)cc4S(=O)(=O)O)c(S(=O)(=O)O)c3)c(O)c12", "inactive"],
  ["CCN1CN(c2ccccc2)C2(CCN(CCCSc3ccc(F)cc3)CC2)C1=O", "inactive"]
]}

Entry CN(C)CCNc1ccc2ncn3c4ccc(O)cc4c(=O)c1c23 : call = ? active

----------
Test system: DLD-1
protocol: NCI tumour cell line growth inhibition, 48 h
The source made the active and inactive calls. Cut-off read from the data, not from the text of the source: active = GI50 up to about 1.1 µM and inactive = higher.
attributeMeasured: GI50

Recorded GI50, per entry:
{"columns": ["compound", "studySystem", "GI50"],
 "data": [
  ["O=[N+]([O-])c1ccc(C2=Nc3ccccc3[S+]([O-])C(c3ccccc3)C2)cc1 (stereo unspecified)", "DLD-1", "18.6 µM (inactive)"],
  ["CC12CC(=O)OC(Cc3ccccc31)O2 (stereo unspecified)", "DLD-1", "> 100 µM (inactive)"],
  ["COC(=O)CC(=O)OC1C[C@@H]2CCC3C(C)(C)CCC[C@]3(C)C23CC[C@@]1(C)C3 (stereo partly specified)", "DLD-1", "18.8 µM (inactive)"],
  ["C=CC(=O)c1ccc2c(c1)OCCOCCOCCOCCOCCO2", "DLD-1", "16.4 µM (inactive)"],
  ["O=c1oc2c3ccc4ccccc4c3n(Cc3nc4ccccc4[nH]3)c2c2ccccc12", "DLD-1", "5.73 µM (inactive)"],
  ["CC(C)OP(=O)(OC(C)C)/C(N)=N/Nc1ccc([N+](=O)[O-])cc1", "DLD-1", "> 100 µM (inactive)"],
  ["CCCCOCN/C(N)=N/C#N", "DLD-1", "> 100 µM (inactive)"],
  ["CC12CCC(=O)N1c1cnccc1N2 (stereo unspecified)", "DLD-1", "> 100 µM (inactive)"],
  ["O=C(NN1C(=O)CSC1c1ccc(C(F)(F)F)cc1)c1ccncc1 (stereo unspecified)", "DLD-1", "> 100 µM (inactive)"],
  ["c1ccc(P(=C2c3ccccc3-c3ccccc32)(c2ccccc2)c2ccccc2)cc1", "DLD-1", "4.32 µM (inactive)"]
]}

Then this compound:
Read the entry C=C1CC[C@@H](Br)C(C)(C)[C@]12CCC(C)(O)C(Cl)C2 (stereo partly specified) and write its reported GI50. 17.5 µM (inactive)
